Ratio for assorted compounds
- Test system: Programmed cell death protein 4 (Homo sapiens)
- Test: Inhibition of TPA-induced PDCD4 degradation in human MCF7 cells at 1 uM treated 30 mins before TPA challenge measured after 6 hrs by Western blot analysis relative to TPA treated control
- Assay type: cell-based
Give the figure by itself; no unit, no explanation.

CCCCCCCCCCCCCCC[C@@H](C[C@H](O)C[C@H](O)C[C@H](O)C[C@H](O)C[C@@H]1CC=CC(=O)O1)OC(C)=O :: 1.9
CCCCCCCCCCCCCCC[C@@H](C[C@@H](O)C[C@@H](O)C[C@@H](O)C[C@@H](O)C[C@H]1CC=CC(=O)O1)OC(C)=O :: 4.5
CCCCCCCCCCCCCCC[C@H](C[C@H](O)C[C@H](O)C[C@H](O)C[C@H](O)C[C@@H]1CC=CC(=O)O1)OC(C)=O :: 3.6
CCCCCCCCCCCCCCC[C@@H](C[C@@H](O)C[C@@H](O)C[C@@H](O)C[C@@H](O)CCO)OC(C)=O :: 2.8
CCCCCCCCCCCCCCC[C@@H](O)C[C@H](O)C[C@H](O)C[C@H](O)C[C@H](O)C[C@@H]1CC=CC(=O)O1 :: 3.8

Sample CCCCCCCCCCCCCCC[C@H](O)C[C@@H](O)C[C@@H](O)C[C@@H](O)C[C@@H](O)C[C@H]1CC=CC(=O)O1 ; Ratio observed: 3.6

Sample CCCCCCCCCCCCCCC[C@H](O)C[C@@H](O)C[C@@H](O)C[C@@H](O)C[C@@H](O)CCO ; Ratio observed: 1.8

---

- System: HT-29
- Test: Cytotoxicity against human HT-29 cells after 72 hrs by MTT assay
- Format: functional, cell-based
- Stated conditions: HT-29, 72 h
Measured parameter: log10 of IC50 (log10 of the value in µM)
Friendly reminder: values = log10 of IC50, unit µM.

CCCCCCCCCCCCCCC[C@H](C[C@H](O)C[C@H](O)C[C@H](O)C[C@H](O)C[C@@H]1CC=CC(=O)O1)OC(C)=O :: 0.38

Sample CCCCCCCCCCCCCCC[C@@H](C[C@H](O)C[C@H](O)C[C@H](O)C[C@H](O)C[C@@H]1CC=CC(=O)O1)OC(C)=O ; log10 of IC50 observed: 0.69

Sample CCCCCCCCCCCCCCC[C@H](O)C[C@@H](O)C[C@@H](O)C[C@@H](O)C[C@@H](O)C[C@H]1CC=CC(=O)O1 ; log10 of IC50 observed: 0.62

Sample CCCCCCCCCCCCCCC[C@@H](O)C[C@H](O)C[C@H](O)C[C@H](O)C[C@H](O)C[C@@H]1CC=CC(=O)O1 ; log10 of IC50 observed: 0.61

Sample CCCCCCCCCCCCCCC[C@@H](C[C@@H](O)C[C@@H](O)C[C@@H](O)C[C@@H](O)CCO)OC(C)=O ; log10 of IC50 observed: 3.11

Sample CCCCCCCCCCCCCCC[C@@H](C[C@@H](O)C[C@@H](O)C[C@@H](O)C[C@@H](O)C[C@H]1CC=CC(=O)O1)OC(C)=O ; log10 of IC50 observed: 0.46
